Sourced from patent US20240182575A1

Overview of recorded IC50 (read off the curve) for various binders
Target: T1, rhPD1-Fc (fusion protein of the extracellular part of human PD-1 and mouse Fc gamma 1, R&D Systems Cat … (human; mouse, UniProt Q15116 25-170; P01868 98-324 = IgG part, limits assumed)
T1 construct: extracellular domain;domain: Fc; bought; also called PD-1 ectodomain
T1 sequence (Q15116 other isoform, or with tags, fused parts or gaps limits assumed): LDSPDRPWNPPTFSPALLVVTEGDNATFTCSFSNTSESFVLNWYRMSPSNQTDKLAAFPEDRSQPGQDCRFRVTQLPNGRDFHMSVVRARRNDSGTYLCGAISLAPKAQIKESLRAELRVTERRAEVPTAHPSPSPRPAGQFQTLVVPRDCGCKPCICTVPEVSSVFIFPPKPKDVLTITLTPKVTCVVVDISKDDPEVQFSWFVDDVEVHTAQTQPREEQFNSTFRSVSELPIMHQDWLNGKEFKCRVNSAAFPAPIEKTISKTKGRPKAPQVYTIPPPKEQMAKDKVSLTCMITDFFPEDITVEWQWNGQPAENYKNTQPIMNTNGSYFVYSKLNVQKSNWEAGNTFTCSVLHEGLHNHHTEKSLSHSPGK
Assay: competition ELISA, coated PD-1; blocked ligand B7-H1-biotin
Procedure: In short, 2 μg/ml PD-1 ectodomain (R&D Systems Cat #1086-PD, Minneapolis, US) was immobilized on maxisorp microtiter plates (Nunc, Wiesbaden, Germany) and free binding sites were blocked using 4% Marvel in PBS.

Consider the reported IC50 (read off the curve) for these binders:
1) 102C3 (VHH, Nanobody against PD-1) VHH: EVQLVESGGGLVQAGKSLRLSCAASGSIFSIHAMGWFRQAPGKEREFVAAITWSGGITYYEDSVKGRFTISRDNAKNTVYLQMNSLKPEDTAIYYCAADRAESSWYDYWGQGTQVTVSS	~10 nM
2) 102E8 (VHH, Nanobody against PD-1) VHH: EVQLVESGGGLVQAGGSLGLSCAASGSIFSINAMAWFRQAPGKEREFVALISWSGGSTYYEDSVKGRFTISRDNAKNTVYLQMNSLKPEDTAIYYCAADRVDSNWYDYWGQGTQVTVSS	~200 nM

input: Requested field: IC50 (read off the curve). Item: 102C12 (VHH, Nanobody against PD-1) VHH: EVQLVESGGGLVQAGGSLRLSCAASGSIASIHAMGWFRQAPGKEREFVAVITWSGGITYYADSVKGRFTISRDNAKNTVYLQMNSLKPEDTAIYYCAGDKHQSSWYDYWGQGTQVTVSS
output: ~80 nM

input: Okay, and 102E2 (VHH, Nanobody against PD-1) VHH: EVQLVESGGGLVQAGGSLRLSCAASGSISSIHAMGWFRQAPGKEREFVAAITWSGGITYYADSLKGRFTISRDNAKNTGYLQMNSLKPEDTAIYYCAADRAQSSWYDYWGQGTQVTVSS ?
output: ~70 nM
